Target: TACE (Homo sapiens)
Sequence (P78536 215-824): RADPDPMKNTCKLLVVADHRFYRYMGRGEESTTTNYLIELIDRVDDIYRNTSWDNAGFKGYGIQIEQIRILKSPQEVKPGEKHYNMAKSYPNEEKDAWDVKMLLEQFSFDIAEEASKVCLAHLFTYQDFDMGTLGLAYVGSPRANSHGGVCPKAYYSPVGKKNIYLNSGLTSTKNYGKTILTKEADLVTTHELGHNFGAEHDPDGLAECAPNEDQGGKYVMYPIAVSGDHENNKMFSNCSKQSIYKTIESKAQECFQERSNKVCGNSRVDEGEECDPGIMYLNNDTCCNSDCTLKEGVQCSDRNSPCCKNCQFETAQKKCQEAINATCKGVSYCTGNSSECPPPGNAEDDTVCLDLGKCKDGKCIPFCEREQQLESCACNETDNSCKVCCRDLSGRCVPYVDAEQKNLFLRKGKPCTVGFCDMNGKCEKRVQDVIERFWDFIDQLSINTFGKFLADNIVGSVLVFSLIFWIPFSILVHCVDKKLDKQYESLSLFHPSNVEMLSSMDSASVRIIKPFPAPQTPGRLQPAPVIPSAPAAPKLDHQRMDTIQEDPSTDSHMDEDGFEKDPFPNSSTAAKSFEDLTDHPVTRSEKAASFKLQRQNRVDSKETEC
Assay: TACE inhibition (fluorescent peptidyl substrate)
Format: biochemical
Settings: read-out: TACE IC50
Counter-ions that a name gives are not always drawn.
READOUT LABEL: IC50 (µM)
Use µM as the unit, but write only the number.

COc1ccc(S(=O)(=O)N(Cc2ccccc2)c2c(OCCO[Si](C)(C)C(C)(C)C)cccc2C(=O)NO)cc1 = 0.529
COc1ccc(S(=O)(=O)N(Cc2cccnc2)c2c(C)cc(C=CC(=O)N3CCOCC3)cc2C(=O)NO)cc1 = 0.548
COc1ccc(S(=O)(=O)N(Cc2c(F)c(F)c(OC)c(F)c2F)c2c(C)cc(C)cc2C(=O)NO)cc1 = 0.271
COc1ccc(S(=O)(=O)N(Cc2cccnc2)c2c(CO)cccc2C(=O)NO)cc1 = 0.11
CCCCCCCCCCC#Cc1cc(C)c(N(C)S(=O)(=O)c2ccc(OC)cc2)c(C(=O)NO)c1 = 1.05

Entry under review: C=CCN(CC=C)C(=O)C=Cc1cc(C)c(N(Cc2cccnc2)S(=O)(=O)c2ccc(OC)cc2)c(C(=O)NO)c1 . Reported IC50? 0.45

Entry under review: COc1ccc(S(=O)(=O)N(Cc2cccnc2)c2c(C)cc(-c3cc4ccccc4s3)cc2C(=O)NO)cc1 [Example 402, hydrochloride salt] . Reported IC50? 0.639

Entry under review: COc1ccc(S(=O)(=O)N(Cc2cccnc2)c2c(CN3CCCC3)cccc2C(=O)NO)cc1 . Reported IC50? 0.142

Entry under review: CCCCCCCCCCCCc1cc(C)c(N(C)S(=O)(=O)c2ccc(OC)cc2)c(C(=O)NO)c1 . Reported IC50? 1.4

Entry under review: COc1ccc(S(=O)(=O)N(Cc2ccc(OCCN3CCCCC3)cc2)c2c(C)cc(Br)cc2C(=O)NO)cc1 . Reported IC50? 0.108

Entry under review: CCCN(c1c(C)cc(C)cc1C(=O)NO)S(=O)(=O)c1ccc(OC)cc1 . Reported IC50? 0.154

Entry under review: COc1ccc(S(=O)(=O)N(Cc2cccnc2)c2c(C)cc(-c3ccccc3C(F)(F)F)cc2C(=O)NO)cc1 . Reported IC50? 0.346

Entry under review: CCc1cc(C)c(N(Cc2cccnc2)S(=O)(=O)c2ccc(OC)cc2)c(C(=O)NO)c1 . Reported IC50? 0.034

Entry under review: CCCCCCCCN(C)C(=O)C=Cc1cc(C)c(N(Cc2cccnc2)S(=O)(=O)c2ccc(OC)cc2)c(C(=O)NO)c1 . Reported IC50? 0.715

###

Biological target: MMP-9 (Homo sapiens)
Sequence (P14780 94-707): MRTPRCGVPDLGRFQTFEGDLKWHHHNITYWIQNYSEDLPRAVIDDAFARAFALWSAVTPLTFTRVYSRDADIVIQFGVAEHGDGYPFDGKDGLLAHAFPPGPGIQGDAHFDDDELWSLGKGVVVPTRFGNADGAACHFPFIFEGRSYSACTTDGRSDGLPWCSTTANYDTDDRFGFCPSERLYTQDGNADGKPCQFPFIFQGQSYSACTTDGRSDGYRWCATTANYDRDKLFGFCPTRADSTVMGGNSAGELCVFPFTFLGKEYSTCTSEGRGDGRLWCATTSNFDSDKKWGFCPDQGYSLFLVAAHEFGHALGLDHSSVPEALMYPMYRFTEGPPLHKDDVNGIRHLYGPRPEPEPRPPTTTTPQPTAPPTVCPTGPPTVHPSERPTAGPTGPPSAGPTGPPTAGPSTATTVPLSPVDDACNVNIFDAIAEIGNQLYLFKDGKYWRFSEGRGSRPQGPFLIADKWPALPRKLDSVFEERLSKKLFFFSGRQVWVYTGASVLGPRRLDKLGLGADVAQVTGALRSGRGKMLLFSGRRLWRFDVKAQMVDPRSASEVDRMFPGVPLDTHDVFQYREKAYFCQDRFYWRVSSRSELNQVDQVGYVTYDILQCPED
Assay: MMP-9 inhibition (thiopeptide or fluorescent peptide substrate assay)
Format: biochemical
Conditions: read-out: MMP-9 IC50
READOUT LABEL: pIC50
Expect pIC50 as a plain number equal to -log10 of the molar concentration.

COc1ccc(S(=O)(=O)N(Cc2ccccc2)c2c(OC(C)C)cccc2C(=O)NO)cc1 = 8.15
CCCCC#Cc1cc(C)c(N(Cc2ccccc2)S(=O)(=O)c2ccc(OC)cc2)c(C(=O)NO)c1 = 6.88
COc1ccc(S(=O)(=O)N(Cc2ccccc2)c2c(C)cc(N(C)C)cc2C(=O)NO)cc1 = 8.70

Entry under review: CCCCCCCCCCCCc1cc(C)c(N(C)S(=O)(=O)c2ccc(OC)cc2)c(C(=O)NO)c1 . Reported pIC50? 6.28

Entry under review: COc1ccc(S(=O)(=O)N(Cc2ccccc2)c2c(OCCCCC(=O)NO)cccc2C(=O)NO)cc1 . Reported pIC50? 8.10
